# Tested on: OVCAR-4 ovarian
# assayDetails: NCI-60 one-dose screen, 48 h (100 = growth as untreated, 0 = no growth, -100 = all killed)
# runConditions: 10 µM
Compounds without any hit were thinned out: in the full panel of roughly 83,000, 20% have a hit.
For each of the compounds below, state its growth.
Answer in %, number only, no unit symbol.

Entry `COc1cc2c3c(n([C@H]4CCOC4)c(=O)c2cc1OC)-c1cc2c(cc1C3=O)OCO2` needs its growth filled in; supply it. 70.9

Entry CN(C)c1ncnc2c1nnn2C1OC(CO)C(O)C1O (stereo not given) needs its growth filled in; supply it. 23.4

Entry `O=C(N/N=C/c1c(Cl)cccc1Cl)c1ccccc1Nc1cccc(C(F)(F)F)c1` needs its growth filled in; supply it. 99.1

Entry `CCN(CC)CCNc1ccc(C)c2sc3cc(Cl)ccc3c(=O)c12` needs its growth filled in; supply it. 52.1

Entry `COc1ccc(-c2nn(-c3cccc(Cl)c3)cc2-c2cc(-c3ccccc3)[nH]c(=O)c2C#N)cc1` needs its growth filled in; supply it. 31

* * *

# System: MDA-MB-435 melanoma
# assayDetails: NCI-60 one-dose screen, 48 h (100 = growth as untreated, 0 = no growth, -100 = all killed)
# runConditions: 10 µM
About 83,000 compounds went through this panel and 20% of them were active in at least one assay; those are over-represented in the sample as a whole. Calls of active or inactive are those of the source. Rule for the calls: active = growth percent below 10; inactive = the rest.
measuredAttribute: growth

Entry `Cn1c2ccccc2c2c3[nH][nH]c(=O)c3c3c4ccccc4[nH]c3c21` needs its growth filled in; supply it. 23.6% (inactive)

Entry `CC1=NN(C(=O)c2nn(-c3ccc(Cl)cc3)cc2O)C(=O)C1` needs its growth filled in; supply it. 59.8% (inactive)

Entry CO[C@H]1CC(O[C@@H]2/C(C)=C/C[C@@H]3C[C@@H](C[C@]4(C=C[C@H](C)[C@@H](C5CCCCC5)O4)O3)OC(=O)[C@@H]3C=C(C)[C@@H](O)[C@H]4OC/C(=C\C=C\[C@@H]2C)[C@]43O)O[C@@H](C)C1O[C@H]1C[C@H](OC)[C@@H](O)[C@H](C)O1 (stereo partly drawn) needs its growth filled in; supply it. -97.1% (active)

Entry `O=C(N/N=C/c1ccc(Cl)cc1)c1ccc(Cc2n[nH]c(=O)c3cccnc23)cc1` needs its growth filled in; supply it. 95.5% (inactive)

Entry `COc1cc(/C=C/c2cc(/C=C/c3ccc(O)c(OC)c3)nc(N)n2)ccc1O` needs its growth filled in; supply it. -8.12% (active)

Entry `C[C@]12CC[C@@H]3c4ccc(O)cc4CC[C@H]3[C@@H]1CC[C@@H]2NS(=O)(=O)c1ccc(C(F)(F)F)cc1` needs its growth filled in; supply it. 22.3% (inactive)

Entry `C[C@H]1[C@H](OC(=O)CCC(=O)O)O[C@@H]2O[C@]3(C)CC[C@H]4[C@H](C)CC[C@@H]1[C@@]24OO3` needs its growth filled in; supply it. 9.74% (active)

Entry COc1ccc(C2CC(c3cc(OC)c(OC)c(OC)c3)=NN2)cc1 (stereo not drawn) needs its growth filled in; supply it. 19.9% (inactive)

* * *

# System: ACHN renal
# assayDetails: NCI-60 one-dose screen, 48 h (100 = growth as untreated, 0 = no growth, -100 = all killed)
# runConditions: 10 µM
About 83,000 compounds went through this panel and 20% of them were active in at least one assay; those are over-represented in the sample as a whole.
Class TRUE: growth at least 40%. Class FALSE: growth below 40%.

// inclusive: growth at least 40%? input: CCCCN(CCCC)C(=O)[C@H](CC)[C@@H]1CC[C@@H](C)[C@@H]([C@H](C)[C@@H](O)[C@@H](C)C(=O)[C@H](CC)C2O[C@]3(C=CC(=O)[C@]4(CC[C@@](C)([C@H]5CC[C@](O)(CC)[C@H](C)O5)O4)O3)[C@H](C)C[C@@H]2C)O1 (some centres undefined) FALSE

// inclusive: growth at least 40%? input: CCOC(=O)/C(=C(\C)N)C1CC(=O)NC1=O (centres undefined) TRUE

// inclusive: growth at least 40%? input: `CCCCc1oc2ccccc2c1C(=O)c1cc(I)c(OCCN(CC)CC)c(I)c1` FALSE

// inclusive: growth at least 40%? input: CCCCCC(=O)O[C@]1(C(C)=O)CCC2C3CCC4=CC(=O)CC[C@]4(C)C3CC[C@@]21C (some centres undefined) FALSE

// inclusive: growth at least 40%? input: `CC(C)(C)c1ccc(S(=O)(=O)N[C@H]2CC[C@H]3[C@@H]4CCc5cc(O)ccc5[C@H]4CC[C@]23C)cc1` FALSE

// inclusive: growth at least 40%? input: `COc1cc2c3c(n([C@@H]4CCOC4)c(=O)c2cc1OC)-c1cc2c(cc1C3=O)OCO2` FALSE

// inclusive: growth at least 40%? input: `COc1ccc(-c2cc(-c3ccc(Cl)cc3)nc(SCCCCCCC(=O)NO)n2)cc1OC` FALSE

// inclusive: growth at least 40%? input: `O=S(=O)(O)c1cccc(Nc2ccc3ccccc3c2)c1` TRUE

// inclusive: growth at least 40%? input: `O=C(Nc1ccccc1)Nc1ncnc2c1ncn2-c1ccccc1` FALSE

// inclusive: growth at least 40%? input: `NC(=O)c1cccc(-n2ccc3cc(NC(=O)Nc4ccc(Cl)c(C(F)(F)F)c4)ccc32)n1` TRUE

// inclusive: growth at least 40%? input: `COc1ccc(Cl)cc1Nc1nc(C(F)(F)F)ccc1C(=O)N/N=C/c1cc(OC)c(OC)c(OC)c1` FALSE

// inclusive: growth at least 40%? input: `COc1cc(-c2ccc(N=Nc3ccc4c(S(=O)(=O)O)ccc(N)c4c3O)c(OC)c2)ccc1N=Nc1ccc2c(S(=O)(=O)O)ccc(N)c2c1O` TRUE

// inclusive: growth at least 40%? input: `O=C1c2ccccc2C(=O)c2c1ccc1c(=O)n(-c3ccccc3C(F)(F)F)nnc21` FALSE

// inclusive: growth at least 40%? input: `CCn1c(SC/C(=N/O)c2ccccc2)nnc1-c1ccccc1` TRUE

// inclusive: growth at least 40%? input: `O=C(COc1cccc(/C=C2\CSc3ccc(Cl)cc3C2=O)c1)c1ccc(Cl)cc1` TRUE

// inclusive: growth at least 40%? input: `CN(C)CCCN1c2ccccc2CCc2ccc(Cl)cc21` TRUE

// inclusive: growth at least 40%? input: `O=C(Nc1ccc(F)cc1)c1cc2ccccc2cc1O` TRUE

// inclusive: growth at least 40%? input: `CN1CCN(CCCn2c(=O)c3sc4ncccc4c3n3nnc(-c4ccccc4)c23)CC1` FALSE

// inclusive: growth at least 40%? input: `O=C(N/N=C/c1ccc(Cl)cc1)c1ccccc1Nc1cccc(C(F)(F)F)c1` TRUE

Taken from PubChem BioAssay (NCI).
